assay: ATG_GRE_CIS: Attagene CIS-FACTORIAL HepG2 Assay for human Glucocorticoid Response Elements (GRE) (AID 2282947); conditions: HepG2 GRE cis-reporter, Attagene multiplex mRNA; actives raise or lower the signal
The source made the active and inactive calls. How the source made its calls: active means hit-call score of the fitted dose curve at least 0.9, where 1 is the maximum; inactive means score below 0.9.
Pick one and only one: Y = active, N = inactive

q: What call does the record list for CCCCOCCO ?
a: N

q: Give the logged outcome of this assay for the following compound: CC(C)(C)c1cc(C(C)(C)C)c(O)c(C(C)(C)C)c1
a: N

q: Lab log entry: COc1ccc([N+](=O)[O-])cc1N — outcome as called in the assay?
a: N

q: Write down the call the test reported for this compound. Item: CCCCCCCC(=O)O
a: N

q: For CCOC(=O)CC(O)(CC(=O)OCC)C(=O)OCC , which call appears in the assay record?
a: N

q: How did this test come out for CC[C@H](c1ccc(O)cc1)[C@@H](CC)c1ccc(O)cc1 ?
a: N

q: Per the records of this test, what outcome belongs to COCC(C)OCC(C)O (configuration not stated) ?
a: N

q: Per the records of this test, what outcome belongs to CN1CCN(c2ccccc2/C=C2\SCCN(c3ccc(Cl)c(Cl)c3)C2=O)CC1 ?
a: N

q: What call does the record list for CC(=O)CC(C)(C)O ?
a: N

q: What did the test return for CC(=O)NC1(c2cccc(F)c2)CCN(CC[C@@]2(c3ccc(Cl)c(Cl)c3)CN(c3ccccc3)C(=O)CO2)CC1 ?
a: N

q: Record lookup: outcome of this test for CCc1nn(C2CCCCC2)c2cc(C3(C#N)CCC(C(=O)O)CC3)ccc12 (configuration not stated) ?
a: N

q: I'd appreciate the recorded outcome for C#C[C@]1(O)CC[C@H]2[C@@H]3CCC4=CC(=O)CC[C@@H]4[C@H]3CC[C@@]21C from this test.
a: N

q: For Oc1cccc(O)c1 , what call appears in the results of this test?
a: N

q: Kindly provide the recorded test outcome for the following compound: OC1CCC(C2CCCCC2)CC1 (configuration not stated)
a: N

q: Returns: the outcome recorded for CCCCC(CC)COC(=O)CCCCC(=O)OCc1ccccc1 (configuration not stated) in this assay.
a: N

q: Can you look up the reported call for CCCCCCCCCCCCN1CCCC1=O for me?
a: N

q: What did this assay record as the result for ClC1=C(Cl)C(Cl)(Cl)C(Cl)=C1Cl ?
a: N

q: Record lookup: outcome of this test for CCCCC(CC)COC(=O)CCCCC(=O)OCC(CC)CCCC (configuration not stated) ?
a: N

q: Please share the test call associated with CCCCCCCCCCCCc1ccccc1S(=O)(=O)O .
a: N

q: Dear all, I need the recorded test outcome for O=C1OC2(c3ccccc31)c1cc(Br)c(O)c(Br)c1Oc1c2cc(Br)c(O)c1Br , thank you.
a: N

q: Which result was noted for this compound in the test: CC(C)(C)CC(C)(C)c1ccc(O)c(-n2nc3ccccc3n2)c1
a: N

q: What did the test return for CCN(CC)CCNc1ccc(CNC=O)c2sc3ccc(OC)cc3c(=O)c12 ?
a: Y

q: What was the test verdict on CCCCCCCCCCCCCC[N+](C)(C)C ?
a: N

q: GET /call?item= NC(=O)N1C(=O)C(C(=O)c2cc(Cl)cs2)c2cc(F)c(Cl)cc21 (configuration not stated) returns the recorded outcome of this test.
a: N

q: Call for entry CCc1ccc(CCOc2ccc(CC3SC(=O)NC3=O)cc2)nc1 (configuration not stated) :
a: N

q: In this assay, the call recorded for CC(C)(C)c1cccc(C(C)(C)C)c1O was what?
a: N

q: Test call, this compound: O=C(O)c1ccccc1C(c1ccc(O)cc1)c1ccc(O)cc1
a: N
